Target or system HCT-15; recorded quantity GI50.
quantity_kind: GI50 (µM)

compound: c1ccc2c(CC3NCCN3)cccc2c1
test_target: HCT-15
quantity_kind: GI50
unit_descriptor: µM
result_qualifier: >
test_value: 100

compound: C=CCC1(CC)C(=O)NC(=O)NC1=O
test_target: HCT-15
quantity_kind: GI50
unit_descriptor: µM
result_qualifier: >
test_value: 100

compound: N#Cc1c(Cl)cccc1Oc1ccc(S(=O)(=O)/N=C(\NN)Nc2ccc(Cl)cc2)cc1
test_target: HCT-15
quantity_kind: GI50
unit_descriptor: µM
result_qualifier: =
test_value: 34.4

compound: C(=N\Nc1ccccc1)/c1nc2ccccc2nc1/C=N/Nc1ccccc1
test_target: HCT-15
quantity_kind: GI50
unit_descriptor: µM
result_qualifier: =
test_value: 4.39

compound: CCC(C)N1CN(c2ccccc2)C2(CCN(CC3COc4ccccc4O3)CC2)C1=O (stereo not given)
test_target: HCT-15
quantity_kind: GI50
unit_descriptor: µM
result_qualifier: =
test_value: 19.7

compound: CCOC(=O)C(C)c1nc2cc(F)c(F)cc2[nH]c1=O (stereo not given)
test_target: HCT-15
quantity_kind: GI50
unit_descriptor: µM
result_qualifier: >
test_value: 100

compound: O=C(O)Cc1ccc(N2N=C(c3ccccc3)CC2=O)cc1
test_target: HCT-15
quantity_kind: GI50
unit_descriptor: µM
result_qualifier: >
test_value: 100

compound: N#Cc1c(-c2ccc([N+](=O)[O-])cc2)cc(-c2ccc(Nc3ccnc4cc(Cl)ccc34)cc2)[nH]c1=O
test_target: HCT-15
quantity_kind: GI50
unit_descriptor: µM
result_qualifier: >
test_value: 100

compound: CN(C)c1ncc(-c2c[nH]c3ccccc23)nc1-c1c[nH]c2ccccc12
test_target: HCT-15
quantity_kind: GI50
unit_descriptor: µM
result_qualifier: =
test_value: 3.14

compound: CSc1ccc(/C=C2\N=C(c3ccccc3)N(c3nc4ccc(Sc5ccccc5)cc4[nH]3)C2=O)cc1
test_target: HCT-15
quantity_kind: GI50
unit_descriptor: µM
result_qualifier: =
test_value: 18.2
